MEASUREMENT DESCRIPTION: Probe calibration by titration with FFA / FFA-BSA complexes: POA
Format: binding
PROTOCOL CONDITIONS: equilibrium dissociation constant of probe for POA
pKd: −log10 of the molar value.
The following molecules are shown together with reported pKd values.

>  <MOLECULE>
L2P22 G6: acrylodan-labeled mutant FABP probe: M18I, G31Y, A73G (protein, UniProt P02693 2-132, looked up, variant M18I G31Y A73G, acrylodan label, acrylodan-labeled mutant FABP probe: M18I, G31Y, A73G) Fatty acid-binding protein, …: AFDGTWKVDRNENYEKFIEKMGINVVKRKLYAHDNLKLTITQEGNKFTVKESSNFRNIDVVFELGVDFAYSLGDGTELTGTWTMEGNKLVGKFKRVDNGKELIAVREISGNELIQTYTYEGVEAKRIFKKE

>  <pKd>
7.06

$$$$
>  <MOLECULE>
L11P7 B3 V26C: acrylodan-labeled mutant FABP probe: M21F, V26C, L72A, L78V, L102V (protein, UniProt P02693 2-132, looked up, variant M21F V26C L72A L78V L102V, acrylodan label, acrylodan-labeled mutant FABP probe: M21F, V26C, L72A, L78V, L102V) Fatty acid-binding protein, …: AFDGTWKVDRNENYEKFMEKFGINVCKRKLGAHDNLKLTITQEGNKFTVKESSNFRNIDVVFELGVDFAYSAADGTEVTGTWTMEGNKLVGKFKRVDNGKEVIAVREISGNELIQTYTYEGVEAKRIFKKE

>  <pKd>
7.95

$$$$
